Entry source: paper PMC9918900

# system tested: PTP1B (Homo sapiens, UniProt P18031)
# Sequence (P18031 whole entry, species assumed): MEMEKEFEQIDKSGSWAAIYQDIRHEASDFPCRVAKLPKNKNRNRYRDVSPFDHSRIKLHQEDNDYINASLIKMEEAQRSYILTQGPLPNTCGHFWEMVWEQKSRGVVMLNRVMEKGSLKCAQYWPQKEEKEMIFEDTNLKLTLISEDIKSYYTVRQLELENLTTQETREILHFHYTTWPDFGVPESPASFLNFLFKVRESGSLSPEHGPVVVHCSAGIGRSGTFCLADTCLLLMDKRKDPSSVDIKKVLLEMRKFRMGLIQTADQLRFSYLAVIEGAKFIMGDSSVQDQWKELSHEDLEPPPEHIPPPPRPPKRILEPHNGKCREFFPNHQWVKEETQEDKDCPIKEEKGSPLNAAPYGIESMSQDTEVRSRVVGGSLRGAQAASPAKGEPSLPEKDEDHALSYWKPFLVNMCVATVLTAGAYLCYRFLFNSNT
# method: PTP1B assay (pNPP substrate)
# Type: biochemical
# recorded conditions: 500 µM
# Method: The aforementioned newly synthesize succinimides and thiazolidinedione hybrids were tested against the PTP1B enzyme to determine their ability to inhibit the negative regulation of insulin as well as leptin signaling. The PTP1B test was performed with a small modification to the method described in the publications. The enzyme efficiency was evaluated using p-nitrophenyl phosphatase (pNPP) as a substrate. […]
Short version: inhibition at 500 µM at least 90% is YES, less is NO.

molecule	system tested	classification
COc1ccc(N2C(=O)C[C@@H](C(C)(C)/C=C3\SC(=O)N(C(=O)CN4CCOCC4)C3=O)C2=O)cc1 [10e]	PTP1B (Homo sapiens, UniProt P18031)	NO
C[C@H]1[C@H](C)CC[C@]2(C(=O)O)CC[C@]3(C)C(=CC[C@@H]4[C@@]5(C)CC[C@H](O)C(C)(C)[C@@H]5CC[C@]43C)[C@H]12 [Ursolic acid, ursolic acid, reference compound]	PTP1B (Homo sapiens, UniProt P18031)	YES
CN1C(=O)C[C@@H](C(C)(C)/C=C2\SC(=O)N(C(=O)CN3CCOCC3)C2=O)C1=O [10b]	PTP1B (Homo sapiens, UniProt P18031)	NO
CC(C)(/C=C1\SC(=O)N(C(=O)CN2CCOCC2)C1=O)[C@@H]1CC(=O)N(c2ccccc2)C1=O [10c]	PTP1B (Homo sapiens, UniProt P18031)	NO

* * *

# system tested: PTP1B (Homo sapiens)
# method: PTP1B assay (pNPP substrate)
# Type: biochemical
# recorded conditions: 125 µM

molecule	system tested	unit	inhibition at 125 µM
COc1ccc(N2C(=O)C[C@@H](C(C)(C)/C=C3\SC(=O)N(C(=O)CN4CCOCC4)C3=O)C2=O)cc1 [10e]	PTP1B (Homo sapiens)	%	67.2
CC(C)(C=C1SC(=O)N(C(=O)CN2CCOCC2)C1=O)C1CC(=O)N(Cc2ccccc2)C1=O (stereo not drawn) [10d]	PTP1B (Homo sapiens)	%	79
CN1C(=O)C[C@@H](C(C)(C)/C=C2\SC(=O)N(C(=O)CN3CCOCC3)C2=O)C1=O [10b]	PTP1B (Homo sapiens)	%	72.8
CC(C)(/C=C1\SC(=O)N(C(=O)CN2CCOCC2)C1=O)[C@@H]1CC(=O)NC1=O [10a]	PTP1B (Homo sapiens)	%	75.1
CC(C)(/C=C1\SC(=O)N(C(=O)CN2CCOCC2)C1=O)[C@@H]1CC(=O)N(c2ccccc2)C1=O [10c]	PTP1B (Homo sapiens)	%	69.3
C[C@H]1[C@H](C)CC[C@]2(C(=O)O)CC[C@]3(C)C(=CC[C@@H]4[C@@]5(C)CC[C@H](O)C(C)(C)[C@@H]5CC[C@]43C)[C@H]12 [Ursolic acid, ursolic acid, reference compound]	PTP1B (Homo sapiens)	%	81.6

* * *

# system tested: human DPP-4 enzyme (Homo sapiens)
# Construct: purchased
# Sequence (P27487 whole entry): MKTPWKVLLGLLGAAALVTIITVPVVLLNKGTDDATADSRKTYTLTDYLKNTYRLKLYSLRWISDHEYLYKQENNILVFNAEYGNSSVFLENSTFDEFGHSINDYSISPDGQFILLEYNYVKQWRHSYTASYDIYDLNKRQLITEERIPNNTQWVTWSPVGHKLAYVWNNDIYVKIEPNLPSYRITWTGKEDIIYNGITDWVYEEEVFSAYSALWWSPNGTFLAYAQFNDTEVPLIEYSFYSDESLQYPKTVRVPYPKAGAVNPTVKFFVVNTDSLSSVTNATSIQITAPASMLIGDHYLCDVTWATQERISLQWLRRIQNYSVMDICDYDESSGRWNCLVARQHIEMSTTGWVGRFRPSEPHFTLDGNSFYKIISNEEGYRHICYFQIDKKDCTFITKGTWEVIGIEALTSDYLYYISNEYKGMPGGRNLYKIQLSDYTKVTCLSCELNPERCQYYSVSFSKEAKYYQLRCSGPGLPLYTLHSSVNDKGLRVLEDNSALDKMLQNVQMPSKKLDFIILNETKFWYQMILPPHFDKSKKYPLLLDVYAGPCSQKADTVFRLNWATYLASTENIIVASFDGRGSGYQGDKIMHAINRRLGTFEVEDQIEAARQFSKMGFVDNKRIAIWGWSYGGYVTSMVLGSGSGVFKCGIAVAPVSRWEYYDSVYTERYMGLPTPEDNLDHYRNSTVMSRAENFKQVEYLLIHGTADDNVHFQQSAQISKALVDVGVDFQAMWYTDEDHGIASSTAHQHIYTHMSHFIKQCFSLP
# method: DPP-4 activity bioassay
# Type: biochemical
# recorded conditions: 125 µM; read-out: DPP4 (inhibition) (converted)
Each entry below carries its recorded inhibition at 125 µM.
experimental endpoint: inhibition at 125 µM (%)

molecule	experimental endpoint	obs value
CN1C(=O)C[C@@H](C(C)(C)/C=C2\SC(=O)N(C(=O)CN3CCOCC3)C2=O)C1=O [10b]	inhibition at 125 µM	69.4
CC(C)(/C=C1\SC(=O)N(C(=O)CN2CCOCC2)C1=O)[C@@H]1CC(=O)N(c2ccccc2)C1=O [10c]	inhibition at 125 µM	67.4
COc1ccc(N2C(=O)C[C@@H](C(C)(C)/C=C3\SC(=O)N(C(=O)CN4CCOCC4)C3=O)C2=O)cc1 [10e]	inhibition at 125 µM	74.5
CC(C)(/C=C1\SC(=O)N(C(=O)CN2CCOCC2)C1=O)[C@@H]1CC(=O)NC1=O [10a]	inhibition at 125 µM	77.2
CC(C)(C=C1SC(=O)N(C(=O)CN2CCOCC2)C1=O)C1CC(=O)N(Cc2ccccc2)C1=O (centres unmarked) [10d]	inhibition at 125 µM	81.4
